# systemUnderTest: T1, hErbB3.hFc (soluble dimeric human ErbB3 extracellular domain fused to human Fc) (human)
# T1 construct: called dimeric
# T1 sequence (chain, as listed by the source limits assumed): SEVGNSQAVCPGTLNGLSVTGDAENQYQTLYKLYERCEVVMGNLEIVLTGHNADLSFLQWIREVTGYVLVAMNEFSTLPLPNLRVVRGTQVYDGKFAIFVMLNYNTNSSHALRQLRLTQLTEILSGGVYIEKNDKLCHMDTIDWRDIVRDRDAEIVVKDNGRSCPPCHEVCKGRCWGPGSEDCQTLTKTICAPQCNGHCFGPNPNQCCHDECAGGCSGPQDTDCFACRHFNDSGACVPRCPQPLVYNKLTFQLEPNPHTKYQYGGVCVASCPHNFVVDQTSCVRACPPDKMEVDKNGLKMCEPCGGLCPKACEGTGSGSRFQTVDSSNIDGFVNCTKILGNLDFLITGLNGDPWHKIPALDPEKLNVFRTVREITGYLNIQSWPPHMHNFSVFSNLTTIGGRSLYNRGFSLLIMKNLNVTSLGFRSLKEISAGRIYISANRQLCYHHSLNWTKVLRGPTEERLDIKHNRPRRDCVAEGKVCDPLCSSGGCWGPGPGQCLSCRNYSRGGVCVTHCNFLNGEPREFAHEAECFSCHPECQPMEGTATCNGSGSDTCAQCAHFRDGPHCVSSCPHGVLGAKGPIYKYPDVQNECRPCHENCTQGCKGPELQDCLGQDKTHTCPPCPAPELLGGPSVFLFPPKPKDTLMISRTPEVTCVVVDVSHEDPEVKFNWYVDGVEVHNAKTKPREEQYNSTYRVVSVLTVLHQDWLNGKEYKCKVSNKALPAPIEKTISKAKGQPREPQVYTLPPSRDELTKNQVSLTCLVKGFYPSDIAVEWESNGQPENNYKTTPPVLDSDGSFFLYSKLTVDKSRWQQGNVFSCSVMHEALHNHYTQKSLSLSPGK
# procedureText: blocking ELISA: antibody + 50 pM ErbB3-hFc on neuregulin1b-coated plate
Listing of recorded IC50 by entry.
observationType: IC50 (nM)

- H2M1827N (antibody, V domains shown, Hybridoma chimeric antibody: human variable domains, mouse IgG2 Fc (H2M prefix)) VH: EVQLVESGGGVVRPGGSLRLSCAASGFTFDDYGMSWVRQAPGKGLECVSGISWNGGNTDYADSVKGRFTISRDNAKNSLYLQMNSLRAEDTALYHCARDGGDWDYFDLWGRGTLVTVSS VL: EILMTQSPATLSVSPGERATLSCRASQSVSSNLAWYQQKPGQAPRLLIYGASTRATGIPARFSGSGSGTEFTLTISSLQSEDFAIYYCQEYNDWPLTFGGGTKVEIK: 0.0229
- H2M1936N (antibody, V domains shown, Hybridoma chimeric antibody: human variable domains, mouse IgG2 Fc (H2M prefix)) VH: EMQLVESGGGLVQPDRSLRLSCAASGFNFDNYAIHWVRQAPGKGLEWVSGISWNSGNIGYADSVKGRFTISRDNAKNSLFLLMNSLRPDDSALYYCTRGYNWNALSPMDVWGQGTTVTVSS VL: DIQMTQSPSSLSASVGDRVTVTCRASQGISNYLAWYQQKPGKVPKLLIYAASTLQSGVPSRFSGSGSGTDFTLTISSLQPEDVASYYCQNYNSAPMTFGQGTKVEIK: 0.527
- H2M1824N (antibody, V domains shown, Hybridoma chimeric antibody: human variable domains, mouse IgG2 Fc (H2M prefix)) VH: EVQLVESGGGVVRPGGSLRLSCAASGFTFDDYGMSWVRQAPGKGLECVSGINWNGGSTDYADSVKGRFTISRDNAKNSLYLQMNSLRAEDTASYYCARDGGDWDYFDLWGRGTLVTVSS VL: EIVMTQSPATLSVSPGERATLSCRASQSVSSNLAWYQQKPGQAPRLLIYGASTRATGIPARFSGSGSGTEFTLTISSLQSEDFAVYFCQEYNDWPLTFGGGTKVEIK: 0.0251
